The origin of these recorded values is patent US9522909B2.

System: cryopreserved human hepatocytes (primary culture)
Assay: Hepatocyte viability (MTT test) on suspended cryopreserved human hepatocytes
Type: cell-based
Conditions: 200 μM, 90 minutes incubation, relative to non treated cells, Table II campaign
Metric: Hepatocyte viability % (200 μM) (%)
Express the result in % but write the number alone.

1) Cc1c(C)c2c(c(C)c1O)CCC(C)(COc1ccc(/C=C3\SC(=O)N(Cc4ccccc4)C3=O)cc1)O2 (centres unmarked)
63
2) Cc1c(C)c2c(c(C)c1O)CCC(C)(COc1ccc(/C=C3\SC(=O)N(C)C3=O)cc1)O2 (racemic)
120

Task: Give Hepatocyte viability % (200 μM) for Cc1c(C)c2c(c(C)c1O)CCC(C)(COc1ccc(CC3SC(=O)NC3=O)cc1)O2 (centres unmarked) [K, troglitazone, reference compound] tested on cryopreserved human hepatocytes (primary culture).
Output: 22

Task: Give Hepatocyte viability % (200 μM) for Cc1c(C)c2c(c(C)c1OC(=O)OC(C)(C)C)CCC(C)(COc1ccc(C=C3SC(=O)N(C)C3=O)cc1)O2 (racemic) tested on cryopreserved human hepatocytes (primary culture).
Output: 66

Task: Give Hepatocyte viability % (200 μM) for Cc1c(C)c2c(c(C)c1O)CCC(C)(CN1C(=O)S/C(=C\c3ccc(O)cc3)C1=O)O2 (racemic) tested on cryopreserved human hepatocytes (primary culture).
Output: 103
